Cited source for all entries: ChEMBL document CHEMBL5344416

test system: MCF7; experiment: Cytotoxicity against human MCF7 cells assessed as reduction in cell viability by MTT assay; assay type: functional, cell-based
Assay Endpoint: IC50 (µM)
Answer format: numeric, µM implied, no suffix.

Entry `C/C(=N\c1ccc(/N=N/c2ccccc2)cc1)c1ccc2c(c1)Nc1ccccc1S2` ; IC50 = 34.6

###

tested on: MDA-MB-231; test: Antiproliferative activity against human MDA-MB-231 cells assessed as reduction in cell proliferation incubated for 72 hrs by WST-1 assay; assay type: functional, cell-based; conditions: MDA-MB-231, 72 h
Property: pIC50; scope: individual compounds
pIC50 is a log-scale quantity: -log10 of the concentration expressed in molar.

{"Structure Notation": "CCN(CC)CCN1c2ncccc2Sc2cccnc21", "Target Entity": "MDA-MB-231", "pIC50": 5.67}

Entry `C#CCN1c2ncccc2Sc2cccnc21` ; pIC50 = 4.85

###

tested on: SNB-19; assay: Antiproliferative activity against human SNB-19 cells assessed as reduction in cell proliferation incubated for 72 hrs by WST-1 assay; assay type: functional, cell-based; conditions: SNB-19, 72 h
Property: IC50; scope: individual compounds
Answer with the number, then the unit.

{"Structure Notation": "C#CCN1c2ncccc2Sc2cccnc21", "IC50": "3.85 µM"}

Pending compound:
Entry `CCN(CC)CCN1c2ncccc2Sc2cccnc21` ; IC50 = 0.33 µM

###

tested on: NHDF; test: Cytotoxicity against human NHDF cells assessed as reduction in cell viability incubated for 72 hrs by WST-1 assay; format: functional, cell-based
Assay Endpoint: IC50

IC50 value, target or system NHDF, for `Clc1ccc(Cn2cc(CN3c4cccnc4Sc4cccnc43)nn2)cc1` : > 100 µM

###

system: BXPC-3; experiment: Cytotoxicity against human BXPC-3 cells assessed as reduction in cell viability incubated for 72 hrs by MTT assay; format: functional, cell-based; conditions: BXPC-3, 72 h
Assay Endpoint: pIC50
pIC50 is a log-scale quantity: -log10 of the concentration expressed in molar.

Entry `CC1=C(C(=O)Nc2ccc(Cl)c(Cl)c2)C(c2ccc3c(c2)Sc2ccccc2N3)C(C(=O)Nc2ccc(Cl)c(Cl)c2)=C(C)N1` ; pIC50 = 5.20

###

system: T47D; assay: Antiproliferative activity against human T47D cells assessed as cell growth inhibition after 48 hrs by SRB assay; format: functional, cell-based
Assay Endpoint: IC50 (µM)
Answer format: numeric, µM implied, no suffix.

Entry `CN1CCN(CC#CCN2c3ccncc3Sc3ccncc32)CC1` ; IC50 = 9.6

###

experiment: Antioxidant activity assessed as ABTS radical scavenging activity; assay type: functional
Assay Endpoint: IC50 (µM)
Answer format: numeric, µM implied, no suffix.

Entry `C/C(=N\c1ccc(/N=N/c2ccccc2)cc1)c1ccc2c(c1)Nc1ccccc1S2` ; IC50 = 41.1

###

test: Antiproliferative activity against human PBMC cells assessed as reduction in cell viability measured after 24 hrs by MTT assay; assay type: functional, cell-based
pIC50: −log10 of the molar value.
Assay Endpoint: pIC50

Entry `CCCCCCCCCCc1nc2cc3c(cc2s1)N(C)c1ccccc1S3` ; pIC50 = < 2.70

###

tested on: MCF7; experiment: Anticancer activity against human MCF7 cells assessed as cell growth inhibition incubated for 48 hrs by MTT assay; format: functional, cell-based; conditions: MCF7, 48 h
Property: IC50; scope: individual molecules

{"Structure Notation": "CSc1ccc2c(c1)N(CCCn1ccc(=O)[nH]c1=O)c1ccccc1S2", "Result": "1.35 µM"}

Pending molecule:
IC50 value, target or system MCF7, for `c1cnc2c(c1)Nc1ccncc1S2` : 8.3 µM

###

test: Cytotoxicity against human HFF-1 cells assessed as reduction of cell viability incubated for 72 hrs by CCK-8 assay; format: toxicity, cell-based
Assay Endpoint: IC50 at 72 h (µM)
Answer format: numeric, µM implied, no suffix.

Entry `c1cnc2c(c1)Nc1ccncc1S2` ; IC50 at 72 h = 38.6

###

test system: MDA-MB-468; assay: Cytotoxicity against human MDA-MB-468 cells assessed as cell viability measured after 3 days by Cell Titer Blue assay; type: functional, cell-based; conditions: MDA-MB-468, 72 h
Assay Endpoint: pIC50
pIC50 is a log-scale quantity: -log10 of the concentration expressed in molar.

pIC50 value, target or system MDA-MB-468, for `CCN1c2ccc(-c3ccccc3)cc2Sc2cc(-c3nnc4ccccn34)ccc21` : 5.01
